Data origin, for the record: ChEMBL document CHEMBL3885881

Each entry below lists one item and its recorded ERYTHROCYTE COUNT value.
Species on record: Rattus norvegicus
Test: DrugMatrix - Regimen: Daily Repeat
Assay type: toxicity, organism-based, Sprague-Dawley
Set-up: regimen Daily Repeat, gender Male, age 6-8 weeks
Conditions: in vivo, po, 0 mg/kg, 120 h, tissue Blood, route oral GAVAGE, dose level Control, time 5 day, vehicle .5 % CMC
The response must be a number in x10E6/uL with no trailing unit.

molecule | ERYTHROCYTE COUNT (x10E6/uL)
CCCCc1oc2ccccc2c1C(=O)c1cc(I)c(OCCN(CC)CC)c(I)c1 [AMIODARONE] | 6.72
ClC(Br)Br [DIBROMOCHLOROMETHANE] | 5.37
NC1=NC(=O)C(c2ccccc2)O1 (centres undefined) [PEMOLINE] | 5.88
ClC(Cl)Br [BROMODICHLOROMETHANE] | 5.37
CC(C)(C)NC(=O)[C@@H]1C[C@@H]2CCCC[C@@H]2CN1C[C@@H](O)[C@H](Cc1ccccc1)NC(=O)[C@H](CC(N)=O)NC(=O)c1ccc2ccccc2n1 | 5.78

Exercise: Find the recorded ERYTHROCYTE COUNT belonging to C1CCC(C(CC2CCCCN2)C2CCCCC2)CC1 (centres undefined) [PERHEXILINE] and report it.
Key: 6.99

Exercise: Find the recorded ERYTHROCYTE COUNT belonging to CN1CCN(CCCN2c3ccccc3Sc3ccc(Cl)cc32)CC1 [PROCHLORPERAZINE] and report it.
Key: 5.65

Exercise: Find the recorded ERYTHROCYTE COUNT belonging to Cc1nc2n(c(=O)c1CCN1CCC(c3noc4cc(F)ccc34)CC1)CCCC2 [RISPERIDONE] and report it.
Key: 6.72

Exercise: Find the recorded ERYTHROCYTE COUNT belonging to CCCN1C[C@H](CSC)C[C@@H]2c3cccc4[nH]cc(c34)C[C@H]21 [PERGOLIDE] and report it.
Key: 5.66

---

Organism: Rattus norvegicus
Assay: DrugMatrix - Regimen: Daily Repeat
Type: toxicity, organism-based, Sprague-Dawley
Parameters: regimen Daily Repeat, gender Male, age 6-8 weeks
Settings: in vivo, po, 0 mg/kg, 72 h, tissue Plasma, route oral GAVAGE, dose level Control, time 3 day, vehicle .5 % CMC
assay_endpoint: CARBON DIOXIDE (mmol/L)
The response must be a number in mmol/L with no trailing unit.

Record excerpt, results attached:
compound | CARBON DIOXIDE / mmol/L
COc1nc(C)nc(Cl)c1N=C1NCCN1 | 29.17
CN1CCN(CCCN2c3ccccc3Sc3ccc(Cl)cc32)CC1 | 29.17

Exercise: Find the recorded CARBON DIOXIDE belonging to `CCn1cc(C(=O)O)c(=O)c2cc(F)c(N3CCNCC3)cc21` and report it.
Key: 34.33

Exercise: Find the recorded CARBON DIOXIDE belonging to `CCOP(=S)(OCC)Oc1nc(Cl)c(Cl)cc1Cl` and report it.
Key: 28.33

Exercise: Find the recorded CARBON DIOXIDE belonging to `Nc1ccn([C@H]2CC[C@@H](CO)O2)c(=O)n1` and report it.
Key: 24.17

Exercise: Find the recorded CARBON DIOXIDE belonging to CCCN1C[C@H](CSC)C[C@@H]2c3cccc4[nH]cc(c34)C[C@H]21 [PERGOLIDE] and report it.
Key: 27

Exercise: Find the recorded CARBON DIOXIDE belonging to `Cc1ccc(/N=C/N(C)/C=N/c2ccc(C)cc2C)c(C)c1` and report it.
Key: 34.33

Exercise: Find the recorded CARBON DIOXIDE belonging to `ClC(Cl)Br` and report it.
Key: 27.5

Exercise: Find the recorded CARBON DIOXIDE belonging to `CC(C)(C)NC(=O)[C@@H]1C[C@@H]2CCCC[C@@H]2CN1C[C@@H](O)[C@H](Cc1ccccc1)NC(=O)[C@H](CC(N)=O)NC(=O)c1ccc2ccccc2n1` and report it.
Key: 27.5

Exercise: Find the recorded CARBON DIOXIDE belonging to `ClC(Br)Br` and report it.
Key: 27.5
